This collection of values is drawn from paper PMC3434800.

Target: T1, Hel308 (ssHel308) wild type (Sulfolobus solfataricus PBL2025, UniProt D0KN27 8-715)
T1 sequence: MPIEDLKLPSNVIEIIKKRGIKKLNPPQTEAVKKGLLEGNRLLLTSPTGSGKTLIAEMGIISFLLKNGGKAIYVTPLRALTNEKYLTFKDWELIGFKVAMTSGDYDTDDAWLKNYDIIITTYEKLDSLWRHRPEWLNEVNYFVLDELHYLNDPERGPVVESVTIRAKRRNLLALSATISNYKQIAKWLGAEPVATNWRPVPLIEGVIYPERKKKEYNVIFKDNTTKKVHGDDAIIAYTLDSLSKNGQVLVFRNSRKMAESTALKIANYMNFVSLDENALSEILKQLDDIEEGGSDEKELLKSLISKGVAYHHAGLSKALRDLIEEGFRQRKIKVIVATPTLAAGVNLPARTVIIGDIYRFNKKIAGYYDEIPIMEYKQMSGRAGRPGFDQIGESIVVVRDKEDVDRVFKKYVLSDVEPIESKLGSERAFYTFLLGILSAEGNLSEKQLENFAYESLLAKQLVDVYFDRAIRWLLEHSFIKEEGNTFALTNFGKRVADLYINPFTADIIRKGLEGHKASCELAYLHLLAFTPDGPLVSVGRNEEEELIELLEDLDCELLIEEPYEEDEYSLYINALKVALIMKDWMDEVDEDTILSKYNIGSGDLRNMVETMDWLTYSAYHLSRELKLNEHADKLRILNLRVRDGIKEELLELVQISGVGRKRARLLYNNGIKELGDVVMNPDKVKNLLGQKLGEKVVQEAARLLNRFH
Assay: fluorescence anisotropy

binder | Kd
15T/15A duplex, 5'-fluorescein on 15T (dsDNA) DNA 1: TTTTTTTTTTTTTTT DNA 2: AAAAAAAAAAAAAAA | 5300 nM
TTTTTTTTTTTTTTT (ssDNA) [15T ssDNA, 5'-fluorescein] | 140 nM
